- test system: HLA-B*18:01
- measurement protocol: IEDB peptide-MHC binding, purified MHC/competitive/fluorescence; filed as Kd, often an IC50 or EC50 that approximates it; bounds were set here for any values at or beyond the usual limits of such assays
- reported conditions: source organism: Mycobacterium tuberculosis H37Ra
endpoint: Kd

INSERT INTO results (seq_text, test_system, test_value) VALUES
  ('AVYLLDGLR', 'HLA-B*18:01', '≥ 20 µM');

---

- test system: HLA-A*11:01
- measurement protocol: IEDB peptide-MHC binding, purified MHC/direct/fluorescence; filed as Kd, often an IC50 or EC50 that approximates it; bounds were set here for any values at or beyond the usual limits of such assays
- reported conditions: source organism: Bacillus licheniformis
endpoint: Kd (nM)

INSERT INTO measurements (seq_text, test_system, endpoint, test_value) VALUES
  ('ALMEITSRY', 'HLA-A*11:01', 'Kd', 605);

---

- test system: HLA-A*02:01
- measurement protocol: IEDB peptide-MHC binding, purified MHC/direct/fluorescence; filed as Kd, often an IC50 or EC50 that approximates it; bounds were set here for any values at or beyond the usual limits of such assays
- reported conditions: source organism: Coxiella burnetii
endpoint: Kd

INSERT INTO measurements (seq_text, test_value) VALUES
  ('WAPEGDIRL', '330 nM'),
  ('YYYNFSEDL', '≥ 20000 nM');

---

- test system: HLA-A*23:01
- measurement protocol: IEDB peptide-MHC binding, purified MHC/competitive/radioactivity; filed as Kd, often an IC50 or EC50 that approximates it; bounds were set here for any values at or beyond the usual limits of such assays
- reported conditions: source organism: Dengue virus 1 Brazil/97-11/1997
endpoint: Kd (nM)

INSERT INTO assay_data (seq_text, test_value) VALUES
  ('TWKLARASF', 218),
  ('GWNDWQQVPF', 1400),
  ('VYPMSIPATL', 6.39);

---

- test system: HLA-B*07:02
- measurement protocol: IEDB peptide-MHC binding, purified MHC/competitive/radioactivity; filed as Kd, often an IC50 or EC50 that approximates it; bounds were set here for any values at or beyond the usual limits of such assays
- reported conditions: source organism: Dengue virus 2 Jamaica/1409/1983
pKd: −log10 of the molar value.
Attribute: pKd
endpoint: pKd

INSERT INTO measurements (seq_text, test_value) VALUES
  ('NPWMEDKTPV', 7.25),
  ('RPGYHTQTA', 8.02),
  ('TPRGTVMDII', 8.21);

---

- test system: HLA-B*27:05
- measurement protocol: IEDB peptide-MHC binding, purified MHC/competitive/fluorescence; filed as Kd, often an IC50 or EC50 that approximates it; bounds were set here for any values at or beyond the usual limits of such assays
- reported conditions: source organism: Burkholderia mallei NCTC 10229
pKd: −log10 of the molar value.
endpoint: pKd

INSERT INTO measurements (seq_text, test_value) VALUES
  ('RRSLLAHVR', 8.18);

---

- test system: HLA-B*51:01
- measurement protocol: IEDB peptide-MHC binding, purified MHC/direct/fluorescence; filed as Kd, often an IC50 or EC50 that approximates it; bounds were set here for any values at or beyond the usual limits of such assays
- reported conditions: source organism: Vibrio vulnificus CMCP6
pKd: −log10 of the molar value.
endpoint: pKd

INSERT INTO results (seq_text, test_value) VALUES
  ('KQIVIINPM', '≤ 4.70');

---

- test system: HLA-B*27:03
- measurement protocol: IEDB peptide-MHC binding, purified MHC/competitive/fluorescence; filed as Kd, often an IC50 or EC50 that approximates it; bounds were set here for any values at or beyond the usual limits of such assays
- reported conditions: source organism: Entamoeba dispar SAW760
endpoint: Kd

INSERT INTO results (seq_text, endpoint, test_value) VALUES
  ('KDGTLFYCY', 'Kd', '≥ 20 µM');

---

- test system: HLA-A*25:01
- measurement protocol: IEDB peptide-MHC binding, purified MHC/competitive/fluorescence; bounds were set here for any values at or beyond the usual limits of such assays
- reported conditions: source organism: Homo sapiens
endpoint: IC50

INSERT INTO results (seq_text, endpoint, test_value) VALUES
  ('FPHTELANL', 'IC50', '≥ 20 µM');

---

- test system: HLA-A*68:02
- measurement protocol: IEDB peptide-MHC binding, purified MHC/direct/fluorescence; filed as Kd, often an IC50 or EC50 that approximates it; bounds were set here for any values at or beyond the usual limits of such assays
- reported conditions: source organism: Mycobacterium tuberculosis
pKd: −log10 of the molar value.
endpoint: pKd

INSERT INTO measurements (seq_text, test_system, test_value) VALUES
  ('WEITYLGTT', 'HLA-A*68:02', '≤ 4.70');

---

- test system: HLA-B*35:01
- measurement protocol: IEDB peptide-MHC binding, purified MHC/direct/fluorescence; filed as Kd, often an IC50 or EC50 that approximates it; bounds were set here for any values at or beyond the usual limits of such assays
- reported conditions: source organism: Escherichia coli
endpoint: Kd (nM)

INSERT INTO assay_data (seq_text, test_value) VALUES
  ('SSMNSDAAY', 11.5);

---

- test system: HLA-A*31:01
- measurement protocol: IEDB peptide-MHC binding, purified MHC/competitive/fluorescence; filed as Kd, often an IC50 or EC50 that approximates it; bounds were set here for any values at or beyond the usual limits of such assays
- reported conditions: source organism: Bacillus cereus G9241
endpoint: Kd (nM)

INSERT INTO measurements (seq_text, test_system, endpoint, measure_unit, test_value) VALUES
  ('ILIFLRNFR', 'HLA-A*31:01', 'Kd', 'nM', 5.1);

---

- test system: HLA-B*15:17
- measurement protocol: IEDB peptide-MHC binding, purified MHC/direct/fluorescence; filed as Kd, often an IC50 or EC50 that approximates it; bounds were set here for any values at or beyond the usual limits of such assays
- reported conditions: source organism: Encephalitozoon cuniculi GB-M1
pKd: −log10 of the molar value.
endpoint: pKd

INSERT INTO measurements (seq_text, test_system, endpoint, test_value) VALUES
  ('RNMSRIFPY', 'HLA-B*15:17', 'pKd', 6.74);

---

- test system: HLA-A*02:03
- measurement protocol: IEDB peptide-MHC binding, purified MHC/competitive/radioactivity; filed as Kd, often an IC50 or EC50 that approximates it; bounds were set here for any values at or beyond the usual limits of such assays
- reported conditions: source organism: Hepatitis C virus (isolate BK)
pKd: −log10 of the molar value.
endpoint: pKd

INSERT INTO measurements (seq_text, test_value) VALUES
  ('VLTDFKTWL', 8.14);

---

- test system: HLA-B*53:01
- measurement protocol: IEDB peptide-MHC binding, purified MHC/competitive/radioactivity; filed as Kd, often an IC50 or EC50 that approximates it; bounds were set here for any values at or beyond the usual limits of such assays
- reported conditions: source organism: Dengue virus 4 Philippines/H241/1956
Attribute: Kd
endpoint: Kd (nM)

INSERT INTO results (seq_text, test_value) VALUES
  ('CPNERRAWNF', 70.6),
  ('LPSIVREAL', 40.6);

---

- test system: HLA-B*27:03
- measurement protocol: IEDB peptide-MHC binding, purified MHC/competitive/fluorescence; filed as Kd, often an IC50 or EC50 that approximates it; bounds were set here for any values at or beyond the usual limits of such assays
- reported conditions: source organism: Vibrio parahaemolyticus RIMD 2210633
endpoint: Kd

INSERT INTO results (seq_text, test_value) VALUES
  ('GTVPTDNPF', '≥ 20 µM');

---

- test system: HLA-B*58:01
- measurement protocol: IEDB peptide-MHC binding, purified MHC/competitive/fluorescence; bounds were set here for any values at or beyond the usual limits of such assays
- reported conditions: source organism: Homo sapiens
endpoint: IC50

INSERT INTO assay_data (seq_text, test_value) VALUES
  ('FPHTELANL', '≥ 20 µM');

---

- test system: HLA-A*03:01
- measurement protocol: IEDB peptide-MHC binding, purified MHC/direct/fluorescence; filed as Kd, often an IC50 or EC50 that approximates it; bounds were set here for any values at or beyond the usual limits of such assays
- reported conditions: source organism: Salmonella enterica subsp. enterica serovar Typhi
endpoint: Kd

INSERT INTO measurements (seq_text, test_value) VALUES
  ('REILFHNTM', '≥ 20 µM');

---

- test system: HLA-B*15:01
- measurement protocol: IEDB peptide-MHC binding, purified MHC/direct/fluorescence; filed as Kd, often an IC50 or EC50 that approximates it; bounds were set here for any values at or beyond the usual limits of such assays
- reported conditions: source organism: Influenza A virus (A/duck/Vietnam/15/2003(H5N1))
endpoint: Kd

INSERT INTO measurements (seq_text, test_value) VALUES
  ('SHEGEGIPL', '≥ 20 µM');
